Exercise: for every item that follows, state its recorded Plant response rating, Nutsedge, Yellow.
test system: nutsedge, yellow (yellow nutsedge, Cyperus esculentus); experiment: Test C greenhouse herbicide test, pre- and postemergence; type: in vivo; conditions: Preemergence, 31 g ai/ha; scale 0 to 100, 0 is no effect, 100 is complete control
Answers are plain numbers.

CCOC(=O)Oc1c(C)nn(C)c(=O)c1-c1c(C)sc2ccc(C)cc12 = 35

Provide Plant response rating, Nutsedge, Yellow for all items below, preserving their order.
1. Cc1ccc2ccccc2c1-c1c(O)c(C)nn(C)c1=O
2. CC(=O)Oc1c(C)nn(C)c(=O)c1-c1c(C)sc2ccc(C)cc12
3. Cc1ccc2ccccc2c1-c1c(O)c(Cl)nn(C)c1=O
4. CCOC(=O)Oc1c(C)nn(C)c(=O)c1-c1c(CC)ccc2ccccc12
5. CC(=O)Oc1c(C)nn(C)c(=O)c1-c1c(C)cc(C)c2ccccc12
6. Cc1ccc2ccc(C)c(-c3c(O)c(C)nn(C)c3=O)c2c1

1. 80
2. 40
3. 65
4. 0
5. 80
6. 45

Name the recorded Plant response rating, Nutsedge, Yellow for CCC(=O)Oc1c(C)nn(C)c(=O)c1-c1ccc(Br)c2ccccc12 .
20

* * *

test system: ragweed (common ragweed, Ambrosia elatior); experiment: Test C greenhouse herbicide test, pre- and postemergence; type: in vivo; details: Postemergence, 125 g ai/ha; scale 0 to 100, 0 is no effect, 100 is complete control
measurementKind: Plant response rating, Ragweed
Give bare numbers.

# example entries with known answers
Cc1sc2ccc(Cl)cc2c1-c1c(OS(C)(=O)=O)c(Cl)nn(C)c1=O [Compound 114] = 98
COc1nn(C)c(=O)c(-c2c(C)ccc3ccccc23)c1O [Compound 54] = 95
Cc1ccc2ccccc2c1-c1c(O)c(Cl)nn(C)c1=O [Compound 125] = 98
CC(=O)Oc1c(C#N)nn(C)c(=O)c1-c1c(C)ccc2ccccc12 [Compound 98] = 98

Now for another entry.
Name the recorded Plant response rating, Ragweed for CC(=O)Oc1c(C)nn(C)c(=O)c1-c1c(C)sc2ccc(C)cc12 [Compound 25] .
95

* * *

Exercise: for every item that follows, state its recorded Plant response rating, Ragweed.
test system: ragweed (common ragweed, Ambrosia elatior); experiment: Test C greenhouse herbicide test, pre- and postemergence; type: in vivo; conditions: Postemergence, 250 g ai/ha; scale 0 to 100, 0 no effect, 100 complete control; 13 to 15 d
Answers are plain numbers.

# example entries with known answers
CCCC(=O)Oc1c(C)nn(C)c(=O)c1-c1c(C)sc2c(C)cc(C)cc12 = 98
CCOC(=O)Oc1c(C)nn(C)c(=O)c1-c1c(C)sc2c(C)cc(C)cc12 = 85

Provide Plant response rating, Ragweed for all items below, preserving their order.
1. CC(=O)Oc1c(C#N)nn(C)c(=O)c1-c1c(C)ccc2ccccc12
2. CCOC(=O)Oc1c(C)nn(C)c(=O)c1-c1c(C)ccc2ccccc12
3. COc1nn(C)c(=O)c(-c2c(C)sc3ccc(Cl)cc23)c1O
4. CCC(=O)Oc1c(C)nn(C)c(=O)c1-c1ccc(Br)c2ccccc12
5. Cc1nn(C)c(=O)c(-c2cccc3ccc(C#N)cc23)c1O
6. Cc1cc(C)c2ccccc2c1-c1c(OS(C)(=O)=O)c(C)nn(C)c1=O
7. Cc1nn(C)c(=O)c(-c2c(C)sc3ccccc23)c1O
8. Cc1cc(C)c2sc(C)c(-c3c(OC(=O)OC(C)C)c(C)nn(C)c3=O)c2c1

100
90
98
5
90
90
90
95

Just for reference, patent US10597388B2 is where these values come from.
